PROCEDURE_DETAILS: yeast TOR reporter LAP4-GFP retest – cell-based, third cherry pick, flow cytometry, confirmation (AID 504338);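 note: ratio to plate DMSO wells so 100% equals DMSO level rather than 0%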
STUDY_CONDITIONS: S. cerevisiae LAP4-GFP strain, 3 h, at 10 µM, stronger effect = higher value
PROPERTY_NAME: GFP response vs DMSO (%)
Numeric answer only, unit % assumed.

According to the records, this molecule C=CCNc1ncnc2ccc(Br)cc12 displays GFP response vs DMSO of 106

According to the records, this molecule COc1ccc(OC)c(N/C(C)=C/C(=O)c2ccccc2)c1 displays GFP response vs DMSO of 103

According to the records, this molecule COc1cccc(NC(=O)CC(C)=O)c1 displays GFP response vs DMSO of 101

According to the records, this molecule C=CCNc1ncnc2ccccc12 displays GFP response vs DMSO of 103

According to the records, this molecule C/C(=C\C(=O)c1ccc(C)cc1)Nc1cccc(O)c1 displays GFP response vs DMSO of 106

According to the records, this molecule COc1ccc(Nc2nc(NN)nc(C)c2[N+](=O)[O-])cc1 displays GFP response vs DMSO of 100

According to the records, this molecule Cc1cccc(C)c1Nc1ncnc(N)c1[N+](=O)[O-] displays GFP response vs DMSO of 101

According to the records, this molecule CC1=CN2C(=N)/C(=C/c3ccc(C)o3)C(=O)N=C2S1 displays GFP response vs DMSO of 104

According to the records, this molecule COc1cc(OC)cc(C(=O)Nc2ccc(-c3nc4ccccc4o3)cc2)c1 displays GFP response vs DMSO of 106

According to the records, this molecule CCc1sc(C(=O)Nc2nc(-c3ccccn3)cs2)cc1C displays GFP response vs DMSO of 189

According to the records, this molecule Cc1nc(Nc2ccc(Br)cc2Br)c([N+](=O)[O-])c(=O)[nH]1 displays GFP response vs DMSO of 106

According to the records, this molecule COc1ccccc1-c1cc(C(F)(F)F)nc(S(=O)(=O)CCCC(=O)O)n1 displays GFP response vs DMSO of 112

Origin of the recorded values: PubChem BioAssay AID504338
